- system: NR1/NR2B receptor (Rattus norvegicus, UniProt P35439+Q00960)
- Construct: from tissue; host or cells: rat cerebral cortex membranes (male Slc: Wistar rat)
- Sequence (Q00960 27-1482, other chains not shown): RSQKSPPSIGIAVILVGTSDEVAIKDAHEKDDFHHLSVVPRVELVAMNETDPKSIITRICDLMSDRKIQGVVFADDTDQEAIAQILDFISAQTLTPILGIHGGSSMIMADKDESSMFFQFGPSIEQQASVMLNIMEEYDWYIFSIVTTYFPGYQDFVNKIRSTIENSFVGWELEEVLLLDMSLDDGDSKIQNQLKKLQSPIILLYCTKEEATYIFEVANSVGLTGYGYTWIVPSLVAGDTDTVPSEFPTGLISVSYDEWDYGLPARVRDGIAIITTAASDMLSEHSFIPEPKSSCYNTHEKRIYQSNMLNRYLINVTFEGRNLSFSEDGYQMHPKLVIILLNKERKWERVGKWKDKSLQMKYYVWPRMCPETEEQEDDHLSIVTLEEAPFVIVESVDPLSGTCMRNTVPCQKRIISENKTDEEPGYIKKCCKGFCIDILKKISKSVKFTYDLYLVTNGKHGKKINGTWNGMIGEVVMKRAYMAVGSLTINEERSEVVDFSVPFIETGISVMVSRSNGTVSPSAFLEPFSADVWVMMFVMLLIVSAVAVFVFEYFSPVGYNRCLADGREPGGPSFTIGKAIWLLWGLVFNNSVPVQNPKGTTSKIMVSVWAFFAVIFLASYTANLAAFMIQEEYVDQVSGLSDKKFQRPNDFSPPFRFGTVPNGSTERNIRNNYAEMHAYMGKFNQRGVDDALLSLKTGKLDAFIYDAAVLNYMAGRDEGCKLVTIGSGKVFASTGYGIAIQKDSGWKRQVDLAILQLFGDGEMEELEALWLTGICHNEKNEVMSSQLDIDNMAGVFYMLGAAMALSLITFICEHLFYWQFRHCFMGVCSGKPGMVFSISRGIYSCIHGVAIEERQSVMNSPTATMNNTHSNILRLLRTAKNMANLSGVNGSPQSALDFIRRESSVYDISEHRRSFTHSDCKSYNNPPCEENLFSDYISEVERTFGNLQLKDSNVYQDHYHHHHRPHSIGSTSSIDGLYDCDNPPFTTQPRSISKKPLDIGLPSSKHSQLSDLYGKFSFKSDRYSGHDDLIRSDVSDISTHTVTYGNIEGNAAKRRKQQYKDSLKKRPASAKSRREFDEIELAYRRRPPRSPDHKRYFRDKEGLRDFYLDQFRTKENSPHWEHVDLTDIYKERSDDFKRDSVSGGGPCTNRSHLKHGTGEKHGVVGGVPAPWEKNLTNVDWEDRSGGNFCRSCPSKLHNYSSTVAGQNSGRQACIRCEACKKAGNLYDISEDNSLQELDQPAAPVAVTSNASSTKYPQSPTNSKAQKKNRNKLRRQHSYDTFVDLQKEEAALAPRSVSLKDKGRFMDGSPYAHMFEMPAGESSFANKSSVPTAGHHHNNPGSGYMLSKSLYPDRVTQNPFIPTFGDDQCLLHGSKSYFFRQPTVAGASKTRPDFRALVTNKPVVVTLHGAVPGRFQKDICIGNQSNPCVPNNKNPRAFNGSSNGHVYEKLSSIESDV
- assay-method-text: Test of binding with NMDA receptor (NR1/NR2B receptor): competition with [3H]-Ifenprodil on rat cerebral cortex membrane specimen
- measurement-context: [3H]-Ifenprodil 5 nM, GBR-12909 3 μM, rat cerebral cortex membranes, ice temperature 120 minutes; read-out: NR2B (IC50 μM)
property-name: IC50 (µM)

Look over these answered cases.
INSERT INTO measurements (compound, property_name, data_value) VALUES
  ('O=C(Nc1ccc2[nH]c(=O)oc2c1)C(=O)N1CCCN(c2ccc(Cl)cc2)CC1 [Compound I-100]', 'IC50', 0.074),
  ('O=C(Nc1cnc2[nH]c(=O)[nH]c2c1)C(=O)N1CCN(c2ccc(C(F)(F)F)cc2)CC1 [Compound I-101]', 'IC50', 0.011),
  ('O=C(CC1(O)CCN(c2ccc(C(F)(F)F)cc2)CC1)Nc1ccc2[nH]c(=O)oc2c1 [Compound I-30]', 'IC50', 0.077),
  ('O=C(C=C1CCN(c2ccc(Cl)c(F)c2)CC1)Nc1ccc2[nH]c(=O)oc2c1 [Compound I-188]', 'IC50', 0.021),
  ('O=C(Nc1ccc2[nH]c(=O)oc2c1)C(=O)N1CCN(c2ccc(Cl)c(F)c2)CC1 [Compound I-109]', 'IC50', 0.012);

1: O=C(Nc1ccc2[nH]c(=O)oc2c1)C(=O)N1CCN(c2ccc(Br)cc2)CC1 [Compound I-87]
2: O=C(Nc1ccc2[nH]c(=O)oc2c1)C(F)=C1CCN(c2ccc(C(F)(F)F)cc2)CC1 [Compound I-42]
3: O=C(Nc1ccc2[nH]c(=O)oc2c1)C(=O)N1CCN(c2ccc(C(F)(F)F)cn2)CC1 [Compound I-103]
-- ask Rank by IC50 (largest to smallest). To answer, write out the labels according to the requested order.
-- reply 2, 3, 1
